Tested on: TGF-b induced Endothelin-1 production
Assay: ET-1 assay: inhibitory effect on TGF-b induced endothelin-1 production
Assay type: cell-based
Conditions: Homo sapiens, Fibroblast; fibroblasts, stimulant (TGFb, serum, LPA etc), ET-1 in media by ELISA, 4-parameter fit
pEC50: −log10 of the molar value.
Quick list: pEC50 per entry.

Worked examples follow.
input.smiles: CC(=O)Nc1cc(=O)n(-c2ccc(OC(F)(F)F)cc2)cc1-c1ccc(F)cc1
assay.system: TGF-b induced Endothelin-1 production
pEC50: < 3.70
--
input.smiles: Cc1cc(-c2cnn(C)c2)cn(-c2ccccc2)c1=O
assay.system: TGF-b induced Endothelin-1 production
pEC50: 3.70 to 4.30
--
input.smiles: Cn1cc(-c2cn(-c3ccc(OC(F)(F)F)cc3)c(=O)cc2NCc2cncnc2)cn1
assay.system: TGF-b induced Endothelin-1 production
pEC50: > 4.30

Indicate its recorded pEC50; the molecule in question is CCOc1ccc(-n2cc(-c3cnn(C)c3)c3nccnc3c2=O)c(C)c1
> 4.30

Indicate its recorded pEC50; the molecule in question is Cc1cc(-c2ccc(F)cc2)cn(-c2ccccc2)c1=O
> 4.30

Indicate its recorded pEC50; the molecule in question is Cc1cc(=O)n(-c2ccc(OC(F)(F)F)cc2)cc1-c1ccnn1C
< 3.70

Indicate its recorded pEC50; the molecule in question is Cn1cc(-c2cnc(=O)n(-c3ccccc3)c2)cn1
< 3.70

Indicate its recorded pEC50; the molecule in question is Cn1cc(-c2cn(-c3ccc(OC(F)(F)F)cc3)c(=O)cc2N)cn1
< 3.70

###

Tested on: TGF-b induced Endothelin-1 production
Experiment: ET-1 assay: inhibitory effect on TGF-b induced endothelin-1 production
Assay type: cell-based
Conditions: Homo sapiens, Fibroblast; fibroblasts, stimulant (TGFb, serum, LPA etc), ET-1 in media by ELISA, 4-parameter fit
pEC50: −log10 of the molar value.
measured.attribute: pEC50

Worked examples follow.
molecule: CNc1cc(=O)n(-c2ccc(OC(F)(F)F)cc2)cc1-c1ccc(F)cc1 [Compound 90]
test.result: < 3.70

molecule: CC(C)OCCn1ccc2c(-c3cn[nH]c3)cn(-c3ccc(OC(F)(F)F)cc3)c(=O)c21 [Compound 692]
test.result: > 4.30

molecule: CCCOC(=O)Nc1cc(=O)n(-c2ccc(OC(F)(F)F)cc2)cc1-c1ccc(F)cc1 [Compound 105]
test.result: < 3.70

molecule: COc1ccc(-c2ccc(=O)n(-c3ccccc3Cl)c2)cc1 [Compound 310]
test.result: 3.70 to 4.30

molecule: O=c1ccc(-c2cn[nH]c2)cn1-c1cccc(F)c1 [Compound 372]
test.result: < 3.70

molecule: O=c1ccc(-c2ccccc2)cn1-c1cncnc1 [Compound 300]
test.result: < 3.70

molecule: CC(=O)c1ccc(=O)n(-c2ccc(Cl)cc2)c1 [Compound 12]
test.result: < 3.70

molecule: COc1ccc(-c2ccc(=O)n(-c3cccc(OC)c3)c2)cc1 [Compound 309]
test.result: 3.70 to 4.30

With those in mind, consider the next molecule.
Indicate its recorded pEC50; the molecule in question is NS(=O)(=O)c1ccc(-c2ccc(=O)n(-c3cccc(C(F)(F)F)c3)c2)cc1 [Compound 329]
< 3.70

###

Tested on: TGF-b induced Endothelin-1 production
Experiment: ET-1 assay: inhibitory effect on TGF-b induced endothelin-1 production
Format: cell-based
Details: Homo sapiens, Fibroblast; fibroblasts, stimulant (TGFb, serum, LPA etc), ET-1 in media by ELISA, 4-parameter fit
pEC50: −log10 of the molar value.
measured.attribute: pEC50

Print TGF-b induced Endothelin-1 production pEC50 for Cc1cc(=O)n(-c2ccc(Cl)cc2C)cc1-c1ccccc1 .
3.70 to 4.30

Print TGF-b induced Endothelin-1 production pEC50 for Cn1cc(-c2cn(-c3ccc(OC(F)(F)F)cc3)c(=O)cc2NCc2ccccc2)cn1 .
> 4.30

From: patent US10233195B2
